Provide the reported pIC50 of each item.
Assayed Target: Inhibitor of nuclear factor kappa-B kinase subunit beta (Homo sapiens, UniProt O14920)
Sequence (O14920 whole entry): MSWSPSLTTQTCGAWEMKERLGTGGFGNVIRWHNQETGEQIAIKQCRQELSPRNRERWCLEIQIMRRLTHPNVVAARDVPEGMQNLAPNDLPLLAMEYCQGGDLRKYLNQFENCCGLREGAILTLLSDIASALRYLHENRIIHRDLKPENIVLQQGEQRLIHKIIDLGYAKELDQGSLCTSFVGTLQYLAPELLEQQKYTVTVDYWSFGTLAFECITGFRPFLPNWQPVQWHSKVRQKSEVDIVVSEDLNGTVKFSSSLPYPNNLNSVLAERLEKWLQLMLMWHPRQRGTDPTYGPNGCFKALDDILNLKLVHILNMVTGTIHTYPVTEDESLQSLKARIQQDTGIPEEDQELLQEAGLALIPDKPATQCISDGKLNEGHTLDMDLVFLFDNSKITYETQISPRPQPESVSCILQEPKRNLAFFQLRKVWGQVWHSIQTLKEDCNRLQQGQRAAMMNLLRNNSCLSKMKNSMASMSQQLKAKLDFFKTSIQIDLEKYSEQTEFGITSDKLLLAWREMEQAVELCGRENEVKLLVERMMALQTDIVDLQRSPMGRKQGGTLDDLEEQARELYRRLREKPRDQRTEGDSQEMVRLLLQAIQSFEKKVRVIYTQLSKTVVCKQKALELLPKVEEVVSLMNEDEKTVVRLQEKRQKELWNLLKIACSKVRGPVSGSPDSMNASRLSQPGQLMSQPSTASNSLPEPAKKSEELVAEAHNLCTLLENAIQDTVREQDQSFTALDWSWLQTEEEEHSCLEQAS
# pIC50 = -log10(concentration in molar units)

Challenge: Supply pIC50 value. Item: NC(=O)c1cc(-c2ccccc2)cc(-c2ccc(S(=O)(=O)NNC3CC3)cc2)c1N
Response given: 6.50

Challenge: Supply pIC50 value. Item: NC(=O)c1cc(-c2ccccc2)cc(-c2ccc(S(=O)(=O)NNCCCN3CCOCC3)cc2)c1N
Response given: 6.50

Challenge: Supply pIC50 value. Item: NC(=O)c1cc(-c2ccccc2)cc(-c2ccc(S(N)(=O)=O)cc2)c1N
Response given: 6.60

Challenge: Supply pIC50 value. Item: NC(=O)c1cc(-c2ccc(Cl)cc2)cc(-c2ccc(S(N)(=O)=O)cc2)c1N
Response given: 7.00

Challenge: Supply pIC50 value. Item: NC(=O)c1cc(-c2ccccc2)cc(-c2cccc(S(N)(=O)=O)c2)c1N
Response given: 5.10

Challenge: Supply pIC50 value. Item: NC(=O)c1cc(-c2ccncc2)cc(-c2ccccc2)c1N [GSK-625137A]
Response given: 5.40

* * *

Assayed Target: Inhibitor of nuclear factor kappa-B kinase subunit beta (Homo sapiens, UniProt O14920)
pIC50: −log10 of the molar value.
Assign class by pIC50: not lower than 6 means class 1; lower than 6 means class 0.

Challenge: Answer whether pIC50 of CS(=O)(=O)Nc1ccc(-c2cc(-c3ccc(Cl)cc3)cc(C(N)=O)c2N)cc1 is greater than or equal to 6.
Response given: class 0

Challenge: Answer whether pIC50 of CN(C)c1cccc(-c2cc(-c3ccccc3)cc(C(N)=O)c2N)c1 is greater than or equal to 6.
Response given: class 0

Challenge: Answer whether pIC50 of CN(C)CCCNNS(=O)(=O)c1ccc(-c2cc(-c3ccccc3)cc(C(N)=O)c2N)cc1 is greater than or equal to 6.
Response given: class 1

Challenge: Answer whether pIC50 of CNC(=O)c1cc(-c2ccc(F)cc2)cc(-c2ccc(S(=O)(=O)N3CCCC3)cc2)c1N [GSK-635416A] is greater than or equal to 6.
Response given: class 0

Challenge: Answer whether pIC50 of COc1c(C(N)=O)cc(-c2ccncc2)cc1-c1ccccc1 is greater than or equal to 6.
Response given: class 0

Challenge: Answer whether pIC50 of NCCNNS(=O)(=O)c1ccc(-c2cc(-c3ccccc3)cc(C(N)=O)c2N)cc1 is greater than or equal to 6.
Response given: class 1

Challenge: Answer whether pIC50 of CS(=O)(=O)Nc1ccc(-c2cc(-c3ccccc3)cc(C(N)=O)c2N)cc1 [GSK-586581A] is greater than or equal to 6.
Response given: class 0

Challenge: Answer whether pIC50 of NC(=O)c1cc(-c2ccc(F)cc2)cc(-c2ccncc2)c1N [GSK-620503A] is greater than or equal to 6.
Response given: class 0

Challenge: Answer whether pIC50 of NC(=O)c1cc(-c2ccccc2)ccc1N is greater than or equal to 6.
Response given: class 0

Challenge: Answer whether pIC50 of NC(=O)c1cc(-c2ccc(F)cc2)cc(-c2ccc(S(=O)(=O)N3CCCC3)cc2)c1N is greater than or equal to 6.
Response given: class 1
